B1: KLHDC10 (parent)
chain: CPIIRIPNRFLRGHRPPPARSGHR

Variants of: B1
Method Notes: protein stability index of a GFP-peptide fusion (GPS, HEK-293T) (PSI 1-6); higher = more stable;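 also: lentivirally expressed fusions sorted by FACS into six bins by GFP to DsRed ratio, PSI derived from sequencing read proportions per bin multiplied by bin number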
Conditions Used: c terminus: a fixed tail appended
protein stability index overview
Lab note: write the figure by itself, no unit.

Reference set, count: 5
Variant	Assay Result
G13M	1.9
R5T	3.81
P17R	2.34
I4S	3.22
R24C	1.82

Query `S21V` yields protein stability index of 1.62

Query `R5H` yields protein stability index of 3.85
